measurementContext: Liquid; Distillation
Please go through the items and note down their Normal boiling temperature.
Give bare numbers, in °C.

Each of the following entries comes with a recorded value; kindly state Normal boiling temperature for each.
1. CCO [ethanol]
2. OCC(O)CO [glycerol]
3. O [water]
4. OCCO [1,2-ethanediol]

Reply:
1: 77.90; 2: 289.90; 3: 100.00; 4: 197.12

* * *

Record form. Attribute: refractive index. Fill in for each entry.
assayProcedure: refractive index (Na D-line) (dimensionless)
measurementContext: 298.15 K; 101.33 kPa; Liquid; Standard Abbe refractometry
Numbers after ± are expanded uncertainties.

{"compoundStructure": "OCCO", "result": "1.4308 ± 0.0005"}
{"compoundStructure": "O", "result": "1.3325 ± 0.0005"}

List the reported refractive index of each compound below.
1. CCO
2. OCC(O)CO

Reply:
1. 1.3594 ± 0.0005
2. 1.4726 ± 0.0005
